# Tested on: RARg:RXRa (NR concentration 270 nM, RXRa partner concentration 90 nM)
# assay_name: PBM binding z-score (relative to random genomic background probes); higher = stronger binding; sequences stand for … in GC…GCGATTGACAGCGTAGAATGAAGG
Grouping key: PBM binding z-score. Bins: interval 1 (below 2), interval 2 (2 to below 4), interval 3 (4 or more)

For orientation, consider the following solved cases.
{"columns": ["polymer_sequence", "classification"],
 "data": [
  ["CGTCCAAGGTCAATGCTAGGTCATTGAAAGCATT", "interval 3"],
  ["ATCTCTAGGTAAGACTCAGTTCAGTTAAGAACGC", "interval 1"],
  ["ATCTCTAGGTAAAAGTTCAGGGAATCCCGAGGAT", "interval 2"]
]}

Returns: class label. Input: TCTATTAGTTGATTAGGGCAACCGTAACAGCGGA
interval 1

Pick a category. Item: TTACCAAGGTTAGCTGAGGTCGTTGATCCAACTC
interval 1

Band for AATACAGGGTTATCGTAGGCCAGAGTACGCACAG ?
interval 1

Which of the defined bands does the recorded PBM binding z-score of TAGCCTAGGTCATTCAAGGGCCAGTATAGAAAGC sit within?
interval 3

Just checking, what class would you give CCTGCTAGGTCAATGGTCAGCTAGAGCAGCTCGC here?
interval 2

Lab note: sort CGTCCAGGGTCAAGGTCAGTGAAAGAGACTCGAA into the matching PBM binding z-score band.
interval 3

Returns: class label. Input: TCCAGTTGGTCACGGAGGTCACACACGACGGGTA
interval 3

Lab note: sort CAAACTAGGACAAGAGGTCAAAGTCCGCTTCCCG into the matching PBM binding z-score band.
interval 3

Which bin, given its PBM binding z-score, does TCATATCGGTAATACAGGTGAAAGTCGGCATCTA occupy?
interval 1

Categorize the following entry: ATCGAAAGGTGGAGGTGAGTATAGAGAAAGGGAA
interval 1

Using the reported PBM binding z-score, which band applies to GCTGCTAGGTCAGGTTGGTTAGCTAACGGGTACG ?
interval 2

---

# Tested on: RARg homodimer (NR concentration 270 nM)
# assay_name: PBM binding z-score (relative to random genomic background probes); higher = stronger binding; sequences stand for … in GC…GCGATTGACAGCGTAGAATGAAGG
test_readout: PBM binding z-score
One number for each entry.

{"columns": ["polymer_sequence", "PBM binding z-score"],
 "data": [
  ["AGTCAAAGTTCAGGACGCGGTAACGTAAAGCACG", 4.94],
  ["ATATGTAGGTTAAGAGTCATTCAGGTTGGTTCGC", 1.13],
  ["TCTAGTTGGTCAAATGTCACACACTCGAAATGCG", 1.78]
]}

For every item in the list below, what is its measured PBM binding z-score?
1. ATATGTAGGTTACTTCCGGGTCATTCAGGCTATG
2. AGAATGAGGTTAAGATCAGGAAAACAGAATACAT
3. CCGACTGGGGCAGAAAGGTTCCCATACCATCCGG
4. GCTCGGAGGACAAGGTCAGCGCTTTGTCCGTAGA
5. CCTGCAAGGTCATGGTCAGCTAATCTACAGTATG

1. 2.02
2. 1.73
3. 0.0675
4. 4.29
5. 6.24

Each sequence below has a recorded value; state its PBM binding z-score.
1. GCTTACGGGTCAAAGGTTATCGCATGAATAGAAT
2. CCTGCTAGGTCATGGTCAGCTAATCTACAGTATG
3. GGAACGAGGGCATTCGGGTTGATAGCATGGCGAT
4. AATACAGGGTCACTAGGCAAGAGTAGGTACGAAT
5. TGTCAAAGTTCAAAGGTAACGAAAGTATCCACAC

[5.01, 4.52, 1.55, 4.81, 6.02]

// batch mode: one PBM binding z-score value per listed entry
1. TCTTGCAGATCAGCAGGTTAAGAAAGCTGGCCAA
2. CCTCGGAGGACAACACGAGGTCAGAGCTGCCAGA
3. TCATATAGGTGATACAGGTGAAAGTCGGCATCTA
4. TCTGCTAGGTCAACGATGGTCATCTAATCTGCTA
5. TCTCGGAGGACACAAAAGGTCAGAGCTCGACATC
6. CCTACTGGGCCATCAGGTTATTGATATCAACGTT

1: -0.618; 2: 3.22; 3: 0.742; 4: 4.69; 5: 4.91; 6: 0.522

Here are 6 sequences. What values of PBM binding z-score were reported for them?
1. ACAGACAGGTGATGACGGTAACTCAGGCTATCAT
2. CGTCCAAGGTCAAGATCAGTGAAAGAGACTCGAA
3. TAGCCGAGGTCATTGGGCCAGTATAGTACGCATC
4. GCTTACGGGTCAAAGGTTATAGCATGAATAGAAT
5. GATACAGGGTCAGCTAGAGACCAGAGTATGGAAA
6. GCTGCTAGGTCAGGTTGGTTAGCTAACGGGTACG

1: 0.261; 2: 6.45; 3: 5.86; 4: 4.71; 5: 4.19; 6: 3.37

Consider the sequence shown here: TCTGCTAGGTCAGTTGGTCAGCAAACGAGCTGCC What is its recorded PBM binding z-score?
3.8

---

# System: PPARg:RXRa IVT, anti-PPARg (NR concentration 270 nM, RXRa partner concentration 90 nM)
# assay_name: PBM binding z-score (relative to random genomic background probes); higher = stronger binding; sequences stand for … in GC…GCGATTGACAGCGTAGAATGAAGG
test_readout: PBM binding z-score
Give bare numbers.

Example sequences with recorded PBM binding z-score:
{"columns": ["polymer_sequence", "assayed_target", "PBM binding z-score"],
 "data": [
  ["TAGACTAGGTCATTCAGGGGCCAGTATAGAAAGC", "PPARg:RXRa IVT, anti-PPARg (NR concentration 270 nM, RXRa partner concentration 90 nM)", 6.36],
  ["CGTCCAAGGTCAAAGGTAAGTGAAGAGATGACGG", "PPARg:RXRa IVT, anti-PPARg (NR concentration 270 nM, RXRa partner concentration 90 nM)", 4.46],
  ["ACTATTAGTTGGGACGAGGGCAACCGATAGGTTG", "PPARg:RXRa IVT, anti-PPARg (NR concentration 270 nM, RXRa partner concentration 90 nM)", 0.659],
  ["TCTATTAGTTGAAGGGCAACCTACGAGTCCGTTT", "PPARg:RXRa IVT, anti-PPARg (NR concentration 270 nM, RXRa partner concentration 90 nM)", 0.488],
  ["GCATCTAGGTAATACAAGGTGAAAGTCCGATTGT", "PPARg:RXRa IVT, anti-PPARg (NR concentration 270 nM, RXRa partner concentration 90 nM)", 3.42],
  ["CCTAGTTGGTCAGGACGTCACACACCGGATATGA", "PPARg:RXRa IVT, anti-PPARg (NR concentration 270 nM, RXRa partner concentration 90 nM)", 0.458],
  ["CGTCCAAGGTCGGAGAGGTCAGTGAATGCCGAGT", "PPARg:RXRa IVT, anti-PPARg (NR concentration 270 nM, RXRa partner concentration 90 nM)", 1.17],
  ["ATATGTAGGTTAGCTGGGGTCATGCAGACTAGGC", "PPARg:RXRa IVT, anti-PPARg (NR concentration 270 nM, RXRa partner concentration 90 nM)", 6.58]
]}

Your task in this section: give PBM binding z-score for each listed record.
1. GCGACTGGGGCATCAGCTGGTTACCATAACTTAA
2. ACTAGATGGTCAGCTGAGGTCACACACAATTCGG

3.01
2.14

I'm hoping you can list PBM binding z-score for every sequence here, please.
1. CCAGCTAGGTCAATGGTCAGCTAAAGCAGCTCGC
2. GGAACGAGGGCAAATTGATAGCAGAGTTTGATGG

1: 4.47; 2: 2.68

---

# System: RARg:RXRa (NR concentration 270 nM, RXRa partner concentration 90 nM)
# assay_name: PBM binding z-score (relative to random genomic background probes); higher = stronger binding; sequences stand for … in GC…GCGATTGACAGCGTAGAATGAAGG
Returns one of Y or N; Y when PBM binding z-score is >= 4.

Recorded results for 5 sequences are shown here.
{"columns": ["polymer_sequence", "classification"],
 "data": [
  ["TTACCAAGGTGAAAGTTCGTTGATGCACGCCTTG", "N"],
  ["GCTTACGGGTCAAAGGATATAGCATGAATAGAAT", "Y"],
  ["ATCGAAAGGTCGTCAGGTGAGTATACAGAAAGGC", "Y"],
  ["CCTCGGAGGACAGAAGGTCAGAGTTGTCCGCTTT", "N"],
  ["AGTCAAATTTCAGGACGAGGTAACGTAAAGCACG", "N"]
]}

Shift focus to the following entry.
Entry CCTACTGGGCCAAGATCATTGATCAGTCAAAGCA : is its PBM binding z-score no less than 4?
N
